Test Name: Apparent volume of distribution during terminal phase in Balb/c mouse at 5 mg/kg, ip administered as single dose measured upto 24 hrs by LC-MS/MS analysis
Format: ADME, organism-based
Applied Conditions: Balb/c, in vivo, read-out: Vz/F
Quantity Kind: Vd/F

>>> reading("Cl.Cn1cc(CNCC2CCN(c3ncc(C(=O)NO)cn3)CC2)c2ccccc21 [QUISINOSTAT HYDROCHLORIDE]")
"245 L/kg"

###

Listed molecules paired with reported selectivity ratio
Test Name: Selectivity index, ratio of IC50 for cytotoxicity against human HepG2 cells assessed to IC50 for antiplasmodial activity against synchronized ring stage Plasmodium falciparum 3D7 infected in human erythrocytes
Assay type: toxicity, cell-based
Applied Conditions: read-out: Ratio IC50
Quantity Kind: selectivity ratio

>>> reading("Cl.Cn1cc(CN2CCC3(CCN(c4ncc(C(=O)NO)cn4)CC3)C2)c2cnccc21")
248
>>> reading("O=C(NO)c1cnc(N2CCC3(CCN(Cc4ccsc4)C3)CC2)nc1")
46
>>> reading("O=C(NO)c1cnc(N2CCC3(CCN(Cc4ccc(-c5ccccc5)cc4)C3)CC2)nc1")
19
>>> reading("O=C(NO)c1cnc(N2CCC3(CCN(Cc4cnc5ccccn45)C3)CC2)nc1")
136
>>> reading("O=C(NO)c1cnc(N2CCC3(CCN(Cc4ccccn4)C3)CC2)nc1")
80
>>> reading("Cl.Cn1cc(CN2CCC3(CCN(c4ncc(C(=O)NO)cn4)CC3)C2)c2ncccc21")
266
